Reference for the values: PubChem BioAssay (NCI)

Tested on: MCF7 breast
PROTOCOL_SUMMARY: NCI-60 one-dose screen, 48 h (100 = growth as untreated, 0 = no growth, -100 = all killed)
CONDITION_SUMMARY: 10 µM unless noted
The panel holds about 83,000 compounds, 20% with a hit somewhere; the sample as a whole holds those more often.
Known growth of a selection of compounds
Enter your answer as a number in %; do not include the unit.

Known results for compounds:
ITEM_SMILES: [2H]c1nc(Nc2ncc3cc(C(=O)N(C)C)n(C4CCCC4)c3n2)c([2H])c([2H])c1N1C([2H])([2H])C([2H])([2H])NC([2H])([2H])C1([2H])[2H]
RESULT_UNIT: %
EXPERIMENTAL_VALUE: 46.9
//
ITEM_SMILES: CCOC(=O)/C=C1\SC(=Nc2ccc(C#N)cc2)N(CCN2C(=O)/C(=C/C(=O)OCC)SC2=Nc2ccc(C#N)cc2)C1=O
RESULT_UNIT: %
EXPERIMENTAL_VALUE: 24.4
//
ITEM_SMILES: Nc1cccc(C(=O)Nc2ccc3c(O)c(N=Nc4ccc(N=Nc5ccc(S(=O)(=O)O)cc5)cc4)c(S(=O)(=O)O)cc3c2)c1
RESULT_UNIT: %
EXPERIMENTAL_VALUE: 97.2

Lab note: O=C(O)c1cc(N=Nc2ccc(-c3ccc(N=Nc4c(S(=O)(=O)O)cc5ccc(Nc6ccccc6)cc5c4O)cc3)cc2)ccc1O gave growth of 92.3

For record Nc1c(C(=O)Nc2ccccc2)sc2nc3c(cc12)CN(C(=O)OCc1ccccc1)CC3 the listed growth is 21.1

The measured growth associated with O=Cc1[nH]c(Sc2ccccc2)c2ccccc12 reads 72.2

Recorded growth (compound C[C@H](Oc1cc(-c2cnn(C3CCNCC3)c2)cnc1N)c1c(Cl)ccc(F)c1Cl ): 37.6

The reported growth of the compound Cc1cccc(NC(=O)c2sc3nc4c(cc3c2N)CN(Cc2ccccc2)CC4)c1C was 22.4

---

# growth per entry
Test system: MDA-MB-435 melanoma
PROTOCOL_SUMMARY: NCI-60 one-dose screen, 48 h (100 = growth as untreated, 0 = no growth, -100 = all killed)
CONDITION_SUMMARY: 10 µM unless noted
The panel holds about 83,000 compounds, 20% with a hit somewhere; the sample as a whole holds those more often.
Form entry: value (%) — number only.

ITEM_SMILES: O=C(Nc1nccs1)c1noc2ccccc12
growth / %: 105

ITEM_SMILES: COc1cc(NC(=O)COc2cc(C)nc3ccc(OC)cc23)cc(OC)c1
growth / %: 100

ITEM_SMILES: C[C@]12CC[C@@H]3c4ccc(O)cc4CC[C@H]3[C@@H]1C[C@H](O)C2
growth / %: 0.155

ITEM_SMILES: O=C1C(=O)c2c(nc3ccc(Br)cn23)-c2ccccc21
growth / %: -94

ITEM_SMILES: C=CCn1c(SCC(=O)Nc2ccc(C(=O)/C=C/c3cc(OC)c(OC)c(OC)c3)cc2)nnc1-c1ccccc1
growth / %: 50

molecule CCCn1c2cc(OCc3cn(-c4ccc(Br)cc4)nn3)ccc2c2ccnc(C)c21 , growth observed: 85.4

Field growth (entry CC(C)(C)CC(C)(C)Cc1ccc(OCCOCC[N+](C)(C)Cc2ccccc2)cc1 ) reads -23.9

Form field growth, entry C=C1C(=O)O[C@H]2[C@H]1CC/C(COC(=O)c1cccnc1)=C\CC[C@@]1(C)O[C@@H]21 : 49.7
